test system: SK-MEL-28; test: SRB colorimetric cell growth inhibition assay, SK-MEL-28; format: cell-based; settings: MEL-28; cell killing (cytotoxic effect); read-out: LC50 MEL-28
Form field: CC50 (one value per entry).
Express it in µM; write the number only.

Use the examples below as a reference point.
>>> measurement("COc1cc(-c2c3c4cc(OC)c(OC(=O)[C@H](C)N)cc4oc(=O)c3n3ccc4c(OC(=O)[C@H](C)N)c(OC)c(OC)cc4c23)ccc1OC(=O)[C@H](C)N [Compound 191]")
11.7
>>> measurement("COc1cc2c(cc1O)oc(=O)c1c2c(-c2ccc(OC(=O)[C@H](C)N)c(OC)c2)c2c3cc(OC)c(O)cc3ccn21.Cl")
12.5
>>> measurement("COc1cc(-c2c3n(c4c(=O)oc5cc(OS(C)(=O)=O)c(OC)cc5c24)CCc2cc(OS(C)(=O)=O)c(OC)cc2-3)ccc1OS(C)(=O)=O")
13.6

## Input Hello, I am looking for reported CC50 with SK-MEL-28 for COc1cc2ccn3c(c(-c4ccc(OC(=O)[C@@H](N)Cc5ccccc5)c(OC)c4)c4c5cc(OC)c(OC(=O)[C@@H](N)Cc6ccccc6)cc5oc(=O)c43)c2cc1OC [Compound 18] . Could you help?
## Output 4.43

## Input Follow-up entry: COc1cc(-c2c3c4cc(OC)c(OC(=O)[C@H](C)N)cc4oc(=O)c3n3ccc4c(OC(=O)[C@H](C)N)c(OC)c(OC)cc4c23)ccc1OC(=O)[C@H](C)N [Compound 16]
## Output 0.669

* * *

tested on: LoVo-Dox; experiment: SRB colorimetric cell growth inhibition assay, LoVo-Dox (MDR); assay type: cell-based; details: Homo sapiens, LOVO-DOX; total growth inhibition (cytostatic effect); read-out: TGI LOVO-DOX
experimental-endpoint: IC (TGI) (µM)
Express it in µM; write the number only.

Use the examples below as a reference point.
>>> measurement("CC[C@H](C)[C@H](N)C(=O)Oc1ccc(-c2c3c4cc(OC)c(OC(=O)[C@@H](N)[C@@H](C)CC)cc4oc(=O)c3n3ccc4cc(OC(=O)[C@@H](N)[C@@H](C)CC)c(OC)cc4c23)cc1OC [Compound 209]")
0.488
>>> measurement("COc1cc(-c2c3c4cc(OC)c(OC(=O)C[C@H](N)C(C)C)cc4oc(=O)c3n3ccc4cc(OC(=O)C[C@H](N)C(C)C)c(OC)cc4c23)ccc1OC(=O)C[C@H](N)C(C)C [Compound 206]")
1.01
>>> measurement("COc1cc(-c2c3c4cc(OC)c(O)cc4oc(=O)c3n3ccc4c(N)cccc4c23)ccc1O [Compound 182]")
21.3
>>> measurement("COc1cc2c(cc1OC)-c1c(-c3ccc(OC(=O)[C@H](C)NC(=O)OC(C)(C)C)c(OC)c3)c3c4cc(OC)c(OC(=O)[C@H](C)NC(=O)OC(C)(C)C)cc4oc(=O)c3n1CC2 [Compound 21]")
11.7
>>> measurement("COc1cc2c(cc1O)CCn1c-2cc2c3cc(OC)c(O)cc3oc(=O)c21 [Compound 196]")
26.4
>>> measurement("COc1cc(-c2c3c4cc(OC)c(OC(C)C)cc4oc(=O)c3n3ccc4c(OC(C)C)c(OC)c(OC)c(COS(C)(=O)=O)c4c23)ccc1OC(C)C [Compound 101]")
13.1

## Input What measured IC (TGI) goes with COc1cc2c(cc1O)CCn1c-2c(Br)c2c3cc(OC)c(O)cc3oc(=O)c21 [Compound 188] ?
## Output 21.8

## Input Follow-up entry: COc1cc2ccn3c(c(-c4ccc(OC(=O)[C@@H](N)C(C)C)c(OC)c4)c4c5cc(OC)c(OC(=O)[C@@H](N)C(C)C)cc5oc(=O)c43)c2cc1OC [Compound 19]
## Output 2.72

## Input Follow-up entry: COc1cc(-c2c3c4cc(OC)c(OC(=O)[C@@H]5CCCN5)cc4oc(=O)c3n3ccc4cc(OC(=O)[C@@H]5CCCN5)c(OC)cc4c23)ccc1OC(=O)[C@@H]1CCCN1 [Compound 180]
## Output 0.498

## Input Follow-up entry: COc1cc(-c2c3c4cc(OC)c(OC(=O)[C@@H](N)CC(C)C)cc4oc(=O)c3n3ccc4cc(OC(=O)[C@@H](N)CC(C)C)c(OC)cc4c23)ccc1OC(=O)[C@@H](N)CC(C)C [Compound 181]
## Output 0.47

## Input Follow-up entry: COc1cc(-c2c3n(c4c(=O)oc5cc(OC(=O)[C@@H]6CCCN6)c(OC)cc5c24)CCc2cc(OC(=O)[C@@H]4CCCN4)c(OC)cc2-3)ccc1OC(=O)[C@@H]1CCCN1 [Compound 134]
## Output 1.99

* * *

tested on: LoVo-Dox; test: SRB colorimetric cell growth inhibition assay, LoVo-Dox (MDR); assay type: cell-based; settings: Homo sapiens, LOVO-DOX; total growth inhibition (cytostatic effect); read-out: TGI LOVO-DOX
Tag: 1 if measured IC (TGI) is not below 10 µM, 0 if it is.

As a guide, the following entries are already answered.
>>> group_label("COc1cc(-c2c3c4cc(OC)c(OC(=O)[C@H](C)N)cc4oc(=O)c3n3ccc4cc(OC(=O)[C@H](C)N)c(OC)cc4c23)ccc1OC(=O)[C@H](C)N")
0
>>> group_label("COc1cc2ccn3c(c(-c4ccc(OC(=O)[C@H](C)N)c(OC)c4)c4c5cc(OC)c(OC(=O)[C@H](C)N)cc5oc(=O)c43)c2cc1OC")
0
>>> group_label("COc1cc(-c2c3c4cc(OC)c(OC(=O)CCC5CCCCC5)cc4oc(=O)c3n3ccc4cc(OC(=O)CCC5CCCCC5)c(OC)cc4c23)ccc1OC(=O)CCC1CCCCC1")
1
>>> group_label("COc1cc2c(cc1O)oc(=O)c1c2c(-c2ccc(OC)c(OC)c2)c2c3cc(OC)c(O)cc3ccn21")
1

## Input Is reported IC (TGI) greater than or equal to 10 µM here: `CCCCCCCC(=O)Oc1ccc(-c2c3n(c4c(=O)oc5cc(OC(=O)CCCCCCC)c(OC)cc5c24)CCc2cc(OC(=O)CCCCCCC)c(OC)cc2-3)cc1OC`
## Output 1

* * *

tested on: LoVo; test: SRB colorimetric cell growth inhibition assay, LoVo; format: cell-based; conditions: Homo sapiens, LoVo; GI=growth inhibition; read-out: GI50 LOVO
experimental-endpoint: GI50
Note to self: number, then unit, no commentary.

Use the examples below as a reference point.
>>> measurement("COc1cc2c(cc1OC)-c1c(-c3ccc(OC(=O)[C@H](C)N)c(OC)c3)c3c4cc(OC)c(OC(=O)[C@H](C)N)cc4oc(=O)c3n1CC2")
"1460 nM"
>>> measurement("COc1cc(-c2c3n(c4c(=O)oc5cc(OC(=O)[C@@H](N)C(C)C)c(OC)cc5c24)CCc2c-3cc(OC)c(OC)c2OC(=O)[C@@H](N)C(C)C)ccc1OC(=O)[C@@H](N)C(C)C")
"854 nM"
>>> measurement("COc1cc2c(cc1O)oc(=O)c1c2c(-c2ccc(OC)c(OC)c2)c2c3cc(OC)c(O)cc3ccn21")
"545 nM"

Continue with the molecule presented below.
## Input What measured GI50 goes with `COc1cc(-c2c3c4cc(OC)c(OC(=O)[C@H](C)N)cc4oc(=O)c3n3ccc4cc(OC(=O)[C@H](C)N)c(OC)cc4c23)ccc1OC(=O)[C@H](C)N` ?
## Output 223 nM

* * *

Tested on: IGROV
Experiment: SRB colorimetric cell growth inhibition assay, IGROV
Assay type: cell-based
Settings: IGROV; cell killing (cytotoxic effect); read-out: LC50 IGROV
Protocol: The finality of these assays is to interrupt the growth of an “in vitro” tumor cell culture by means a continued exhibition of the cells to the sample to be testing. A colorimetric type of assay, using sulforhodamine B (SRB) reaction has been adapted for a quantitative measurement of cell growth and viability (following the technique described by P. A. Skehan, et al., J. Natl. Cancer Inst. 1990, 82, 1107-1112). […] The values for mean +/− SD of data from triplicate wells are calculated. […]
experimental-endpoint: CC50 (µM)
Express it in µM; write the number only.

Use the examples below as a reference point.
>>> measurement("COc1cc2ccn3c(c(-c4ccc(OC(=O)[C@@H](N)C(C)C)c(OC)c4)c4c5cc(OC)c(OC(=O)[C@@H](N)C(C)C)cc5oc(=O)c43)c2cc1OC")
14
>>> measurement("COc1cc(-c2c3n(c4c(=O)oc5cc(OS(C)(=O)=O)c(OC)cc5c24)CCc2cc(OS(C)(=O)=O)c(OC)cc2-3)ccc1OS(C)(=O)=O")
13.6
>>> measurement("COc1cc(-c2c3c4cc(OC)c(OC(=O)[C@H](C)N)cc4oc(=O)c3n3ccc4c(OC(=O)[C@H](C)N)c(OC)c(OC)cc4c23)ccc1OC(=O)[C@H](C)N [Compound 191]")
11.7

## Input What measured CC50 goes with `COc1cc2ccn3c(c(-c4ccc(OC(=O)[C@@H](N)Cc5ccccc5)c(OC)c4)c4c5cc(OC)c(OC(=O)[C@@H](N)Cc6ccccc6)cc5oc(=O)c43)c2cc1OC` ?
## Output 12.4

## Input Follow-up entry: `COc1cc2c(cc1O)oc(=O)c1c2c(-c2ccc(OC(=O)[C@H](C)N)c(OC)c2)c2c3cc(OC)c(O)cc3ccn21.Cl`
## Output 1.26

## Input Follow-up entry: COc1cc(-c2c3c4cc(OC)c(OC(=O)[C@H](C)N)cc4oc(=O)c3n3ccc4c(OC(=O)[C@H](C)N)c(OC)c(OC)cc4c23)ccc1OC(=O)[C@H](C)N [Compound 16]
## Output 1.59

src = patent US7396837B2
